Tested Target: human cannabinoid receptor type 2 (Homo sapiens)
Construct: expressed in transfected cells; membrane preparation
Sequence (P34972 whole entry): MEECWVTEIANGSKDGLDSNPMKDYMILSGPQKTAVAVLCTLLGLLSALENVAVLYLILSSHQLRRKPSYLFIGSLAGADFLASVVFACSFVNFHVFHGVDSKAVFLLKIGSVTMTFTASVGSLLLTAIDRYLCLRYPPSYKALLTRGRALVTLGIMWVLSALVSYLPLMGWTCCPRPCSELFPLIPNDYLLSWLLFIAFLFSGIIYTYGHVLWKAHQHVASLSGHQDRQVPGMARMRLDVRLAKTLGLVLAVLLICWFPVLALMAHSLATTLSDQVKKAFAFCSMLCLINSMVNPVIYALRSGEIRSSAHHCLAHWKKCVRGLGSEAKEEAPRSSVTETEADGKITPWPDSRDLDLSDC
Experiment Summary: Human CB2 Radioligand Binding Assay
Condition: competition with [3H] CP-55,940; membranes from stably transfected CHO CB2 cells; read-out: CB2 Ligand Binding Asssay EC50
pEC50: −log10 of the molar value.
Observed Property: pEC50

>  <Smiles Notation>
Cc1ccc(Cl)cc1N1CCN(c2nc(-c3ccccc3Cl)nc3ccccc23)CC1

>  <pEC50>
> 6.00

$$$$
>  <Smiles Notation>
OC1(c2ccc(Cl)cc2)CCN(c2nc(-c3ccccc3Cl)nc3ccccc23)CC1

>  <pEC50>
> 6.00

$$$$
>  <Smiles Notation>
CC(=O)N1CCCN(c2nc(-c3ccccc3Cl)nc3ccccc23)CC1

>  <pEC50>
> 6.00

$$$$

Problem: Recorded pEC50 of `c1ccc2c(N3CCCC3)nc(C3CCCC3)nc2c1` , please.
Result: < 6.00
